Experimental details: Primary qHTS for delayed death inhibitors of the malarial parasite plastid, 96 hour incubation
Stated conditions: P. falciparum luciferase reporter growth; series mostly up to 28.7 µM
In all, about 320,000 compounds went through this assay and about 22,000 (6.9%) were called active. Roughly 27% stayed inconclusive and do not appear here. The call rests on the fitted dose curve; in most records, active means well fitted inhibition curve with a large enough effect; inconclusive means small, poorly fitted or top-dose-only effect, or another doubt; inactive means no such curve, though single readings can be large or run the other way. Many of the other results were omitted from the sample, so actives are more common in it than they were.
A correct response names exactly one class from active, inactive

{"columns": ["Molecule", "Class name"],
 "data": [
  ["Cc1ccc2[nH]c3c(=O)n(CC(=O)NCCc4ccc(Cl)cc4)ncc3c2c1", "active"]
]}

Now turn to the next molecule.
Could you kindly confirm the outcome this assay logged for "O=C(Nc1ccc(S(=O)(=O)Nc2ncccn2)cc1)C12CC3CC(CC(C3)C1)C2" ?
inactive

====

Experimental details: Primary qHTS for delayed death inhibitors of the malarial parasite plastid, 96 hour incubation
Stated conditions: P. falciparum luciferase reporter growth; series mostly up to 28.7 µM
Source text: The goal of this screen is to discover new antimalarial compounds that act by inhibiting the development of the apicoplast in the malarial parasite Plasmodium falciparum. […] We have developed a cell-based assay that measures parasite growth based on the expression of an integrated copy of a firefly luciferase reporter. […] Growth inhibition is detected by a decrease in luciferase activity. […]
Out of some 320,000 compounds screened, about 22,000 (6.9%) were called active. Another 27% or so got no clear call; they are omitted. Calls come from the whole dose curve; as a rule, active = well fitted inhibition curve with a large enough effect; inconclusive = small, poorly fitted or top-dose-only effect, or another doubt; inactive = no such curve, though single readings can be large or run the other way. What follows is part of a selection rich in actives, with near analogues and random picks from the rest.
A correct response names exactly one class from yes for active, no for inactive

Could you kindly confirm the outcome this assay logged for "CCn1cc(CN2CCC(n3nccc3NC(=O)CCCc3ccccc3)CC2)c(C)n1" ?
no

Could you kindly confirm the outcome this assay logged for "CC(C)CC(=O)N1CCN(Cc2cccc(Cl)c2)CC1" ?
no

====

Experimental details: Primary qHTS for delayed death inhibitors of the malarial parasite plastid, 96 hour incubation
Stated conditions: P. falciparum luciferase reporter growth; series mostly up to 28.7 µM
From the text: The goal of this screen is to discover new antimalarial compounds that act by inhibiting the development of the apicoplast in the malarial parasite Plasmodium falciparum. […] We have developed a cell-based assay that measures parasite growth based on the expression of an integrated copy of a firefly luciferase reporter. […] Growth inhibition is detected by a decrease in luciferase activity. […]
The whole screen tested about 320,000 compounds, of which about 22,000 (6.9%) were called active. Inconclusive results (about 27%) are left out. Calls follow the shape of the dose curve; as a rule, active = well fitted inhibition curve with a large enough effect; inconclusive = small, poorly fitted or top-dose-only effect, or another doubt; inactive = no such curve, though single readings can be large or run the other way. Only a selection was taken, and actives are over-represented in it overall.
A correct response names exactly one class from t = active, f = inactive

Study these solved cases before continuing.
{"columns": ["Compound", "Class name"],
 "data": [
  ["CCOC(=O)c1[nH]ncc1CN1CCCC(C(=O)c2ccc(OC)cc2C)C1 (configuration not stated)", "t"],
  ["CNS(=O)(=O)c1cccc(C(=O)NC2CCCc3ccccc32)c1 (configuration not stated)", "f"],
  ["NC(=O)c1ccc(Nc2ccc3c(c2)CCC3)c([N+](=O)[O-])c1", "f"],
  ["CCC(=O)Nc1ccc(C(=O)Nc2cccc(OC)c2)cc1", "f"],
  ["Cc1ccc(C)c(SCc2nc3sc(C(=O)O)c(C)c3c(=O)[nH]2)c1", "f"]
]}

Could you kindly confirm the outcome this assay logged for O=C(O)C1CCC(CNS(=O)(=O)c2ccc(Br)cc2)CC1 (configuration not stated) ?
f

Could you kindly confirm the outcome this assay logged for "Cn1cc(S(=O)(=O)Nc2ccc(Cl)cc2Cl)c(=O)n(C)c1=O" ?
f

====

Experimental details: Primary qHTS for delayed death inhibitors of the malarial parasite plastid, 96 hour incubation; further: potency means the concentration at half of the fitted maximal effect
Stated conditions: P. falciparum luciferase reporter growth; series mostly up to 28.7 µM
About 22,000 (6.9%) of roughly 320,000 compounds were called active. Another 27% or so got no clear call; they are omitted. The entries come from a sample that favours actives as a whole.
Reported property: Potency

Use these answered entries as a reference point.
{"columns": ["Compound", "Potency"],
 "data": [
  ["O=C(Nc1cccc(Cl)c1)C1CCCN(c2cnccn2)C1 (stereo not given)", "inactive"],
  ["CC(C)CCn1c(=O)c2c(nc3n2CCCN3Cc2ccccc2)n(C)c1=O", "6.57 µM (active)"],
  ["NS(=O)(=O)c1cccc(NC(=O)CSc2nc3ccccc3n2-c2ccccc2)c1", "inactive"],
  ["CCOC(=O)CSc1nc2c(c(=O)n(Cc3ccccc3Cl)c(=O)n2C)n1C", "inactive"],
  ["Cc1cccc(-n2c(SCC(=O)Nc3cccc(S(=O)(=O)NC4=NCCCCC4)c3)nc3ccccc3c2=O)c1C", "5.22 µM (active)"],
  ["O=c1oc2c(CN3CCCCC3)c(O)ccc2c2c1CCCCC2", "10.4 µM (active)"],
  ["CN(CCOc1ccc(Br)cc1)CC(=O)Nc1cccc(S(=O)(=O)NC2=NCCC2)c1", "inactive"],
  ["CCOC(=O)c1ccc(N2C(=O)CC(N3CC(C)OC(C)C3)C2=O)cc1 (stereo not given)", "inactive"]
]}

Name the reported Potency value associated with the compound "O=C(CSc1nc2ccccc2c(=O)n1-c1ccc(F)cc1)NC1CC1"
inactive

Name the reported Potency value associated with the compound "O=C(Nc1cccc(S(=O)(=O)NC2=NCCC2)c1)C1CCCCC1"
inactive

====

Experimental details: Primary qHTS for delayed death inhibitors of the malarial parasite plastid, 96 hour incubation
Stated conditions: P. falciparum luciferase reporter growth; series mostly up to 28.7 µM
Screen size: about 320,000 compounds; about 22,000 (6.9%) were called active. Inconclusive results (about 27%) are left out. The call rests on the fitted dose curve; in most records, active means well fitted inhibition curve with a large enough effect; inconclusive means small, poorly fitted or top-dose-only effect, or another doubt; inactive means no such curve, though single readings can be large or run the other way. The sample as a whole holds a higher share of actives than the screen did.
A correct response names exactly one class from active, inactive

{"columns": ["Compound", "Class name"],
 "data": [
  ["Cc1ccc(S(=O)(=O)c2nc(NCCCn3ccnc3)sc2Cl)cc1", "active"],
  ["C/C(=N\\NC(=S)NCc1ccccc1)c1ccc(Cl)cc1", "inactive"],
  ["O=C(CS(=O)(=O)Cc1ccccc1)NCC1CCCO1 (configuration not stated)", "active"]
]}

Could you kindly confirm the outcome this assay logged for CCOc1ccc(S(=O)(=O)N2CCN(C(=S)NCC3CCCO3)CC2)cc1 (configuration not stated) ?
active

Could you kindly confirm the outcome this assay logged for "CCOc1ccc(NC(=S)N2CCCCCC2)cc1" ?
inactive

Could you kindly confirm the outcome this assay logged for "O=C1COc2ccc(S(=O)(=O)Nc3ccc(OC(F)(F)F)cc3)cc2N1" ?
inactive

Could you kindly confirm the outcome this assay logged for "O=C(Nc1ccccc1C(=O)N1CCCCC1)c1ccco1" ?
inactive

Could you kindly confirm the outcome this assay logged for "CCC(=O)Nc1cc(C(F)(F)F)ccc1N1CCCC1" ?
inactive

Could you kindly confirm the outcome this assay logged for CCOc1ccc(S(=O)(=O)NCCC(=O)NCC2CCCO2)cc1 (configuration not stated) ?
inactive

Could you kindly confirm the outcome this assay logged for "CC(C)n1c(COc2ccccc2)nc2ccccc21" ?
inactive

Could you kindly confirm the outcome this assay logged for "C/C(=N\NC(=S)NCc1ccccc1)C1CCCCC1" ?
active

Could you kindly confirm the outcome this assay logged for COc1ccc(S(=O)(=O)N2CCN(C(=S)NCC3CCCO3)CC2)cc1OC (configuration not stated) ?
inactive

====

Experimental details: Primary qHTS for delayed death inhibitors of the malarial parasite plastid, 96 hour incubation
Stated conditions: P. falciparum luciferase reporter growth; series mostly up to 28.7 µM
The whole screen tested about 320,000 compounds, of which about 22,000 (6.9%) were called active. About 27% were inconclusive and are not listed. The call rests on the fitted dose curve; in most records, active means well fitted inhibition curve with a large enough effect; inconclusive means small, poorly fitted or top-dose-only effect, or another doubt; inactive means no such curve, though single readings can be large or run the other way. This is one part of a sample in which actives are shown more often than they occur.
A correct response names exactly one class from yes for active, no for inactive

{"columns": ["Compound", "Class name"],
 "data": [
  ["CCCCn1c(=S)[nH]c2cc(S(=O)(=O)N3CCCCC3)ccc21", "yes"],
  ["[O-][N+]12CCCCC1CCCC2CO (stereo unspecified)", "no"],
  ["Cc1cc(N/N=C/c2ccccc2F)c2ccccc2n1", "no"]
]}

Could you kindly confirm the outcome this assay logged for "O=C(CCc1nnc2ccc(NCCCN3CCCC3=O)nn12)NCc1ccccc1Cl" ?
no

Could you kindly confirm the outcome this assay logged for "O=C(c1ccccc1)N1CCN(C(=O)N2CCCCC2)CC1" ?
no

Could you kindly confirm the outcome this assay logged for "O=C(NCC(=O)N1CCN(c2ccccc2O)CC1)c1ccc2ccccc2c1" ?
yes

Could you kindly confirm the outcome this assay logged for "CCOCCCNC(=S)N1CCC(NC(=O)C2CCCCC2)CC1" ?
no

====

Experimental details: Primary qHTS for delayed death inhibitors of the malarial parasite plastid, 96 hour incubation; further: potency means the concentration at half of the fitted maximal effect
Stated conditions: P. falciparum luciferase reporter growth; series mostly up to 28.7 µM
In all, about 320,000 compounds went through this assay and about 22,000 (6.9%) were called active. Roughly 27% stayed inconclusive and do not appear here. This excerpt belongs to a sample that is enriched for actives.
Reported property: Potency

{"columns": ["Molecule", "Potency"],
 "data": [
  ["Cc1ccccc1C1=NC(C(F)(F)F)(C(F)(F)F)c2c(n(-c3ccc(F)cc3)c(=O)[nH]c2=O)N1", "11.7 µM (active)"],
  ["Cc1ccc(-c2nc(CSCC(=O)NC3CCN(Cc4ccccc4)CC3)c(C)o2)cc1", "inactive"],
  ["O=c1[nH]c(=O)n(Cc2ccco2)c2c1C(C(F)(F)F)(C(F)(F)F)N=C(c1ccco1)N2", "inactive"],
  ["CCNC(=S)N(CCN(CC)CC)Cc1cc2cc3c(cc2[nH]c1=O)OCO3", "inactive"],
  ["Cc1cccc(-c2nc(CS(=O)CC(=O)NC(C)CCc3ccccc3)c(C)o2)c1 (centres undefined)", "inactive"],
  ["Cc1ccc(-c2nc(CS(=O)CC(=O)N3CCN(c4ncccn4)CC3)c(C)o2)cc1 (centres undefined)", "inactive"],
  ["COc1ccc(-c2nc(CS(=O)CC(=O)N3CCC4(CC3)OCCO4)c(C)o2)cc1 (centres undefined)", "inactive"],
  ["COc1ccc(-c2nc(CS(=O)CC(=O)NCc3ccccc3)c(C)o2)cc1OC (centres undefined)", "13.1 µM (active)"]
]}

Next, consider the following molecule.
Name the reported Potency value associated with the molecule "CCCCOC(=O)CCCc1ccc([N+](=O)[O-])cc1[N+](=O)[O-]"
inactive
